# Assay Overview: Antimicrobial activity against Clostridium tyrobutyricum assessed as inhibition of microbial growth upto 2 uM
# Assay type: toxicity
Endpoint Name: Activity

CO[C@H]1/C=C/O[C@@]2(C)Oc3c(C)c(O)c4c(O)c(c(/C=N/N5CCN(C)CC5)c(O)c4c3C2=O)NC(=O)/C(C)=C\C=C\[C@H](C)[C@H](O)[C@@H](C)[C@@H](O)[C@@H](C)[C@H](OC(C)=O)[C@@H]1C :: Toxic
NNC(=O)c1ccncc1 :: Toxic
Cc1cccc(C(=O)Nc2cc(C)nn2-c2nc3ccccc3c(=O)[nH]2)c1 :: Non-Toxic
CCc1cc(=O)[nH]c(-n2nc(C)cc2Nc2cccc(C(F)(F)F)c2)n1 :: Non-Toxic

* * *

# System: Mycolicibacterium smegmatis
# Assay Overview: Antimycobacterial activity against Mycobacterium smegmatis […] assessed as inhibition of bacterial growth incubated for 48 hrs by spectrophotometer
# Assay type: functional
Listed here: items and their measured MIC.
Unit µM implied. Number only.

The examples below pair each entry with its known result.
Cc1cc(NC(=O)c2ccc(C)c(C)c2)n(-c2nc(C)c(C)c(=O)[nH]2)n1 :: 1.06
CCc1cc(=O)[nH]c(-n2nc(C)cc2NC(=O)c2cccc([N+](=O)[O-])c2)n1 :: 0.86
CCc1c(C)nc(-n2nc(C)cc2NC(=O)CCc2ccc(OC)cc2)[nH]c1=O :: 18
CCOC(=O)C(=O)Nc1cc(C)nn1-c1nc(C)c(CC)c(=O)[nH]1 :: 30.6

Record request: MIC value, item `CCc1c(C)nc(-n2nc(C)cc2NC(=O)COc2cccc(C)c2)[nH]c1=O`
7.71

Report MIC for CCc1c(C)nc(-n2nc(C)cc2NC(=O)C2CC(=O)N(c3ccc(C)cc3)C2)[nH]c1=O (centres undefined) please.
29.8

* * *

The entries below come with measured pKd values attached.
# Target: Decaprenylphosphoryl-beta-D-ribose oxidase (Mycobacterium tuberculosis (strain ATCC 25618 / H37Rv), UniProt P9WJF1)
# Sequence (P9WJF1 whole entry): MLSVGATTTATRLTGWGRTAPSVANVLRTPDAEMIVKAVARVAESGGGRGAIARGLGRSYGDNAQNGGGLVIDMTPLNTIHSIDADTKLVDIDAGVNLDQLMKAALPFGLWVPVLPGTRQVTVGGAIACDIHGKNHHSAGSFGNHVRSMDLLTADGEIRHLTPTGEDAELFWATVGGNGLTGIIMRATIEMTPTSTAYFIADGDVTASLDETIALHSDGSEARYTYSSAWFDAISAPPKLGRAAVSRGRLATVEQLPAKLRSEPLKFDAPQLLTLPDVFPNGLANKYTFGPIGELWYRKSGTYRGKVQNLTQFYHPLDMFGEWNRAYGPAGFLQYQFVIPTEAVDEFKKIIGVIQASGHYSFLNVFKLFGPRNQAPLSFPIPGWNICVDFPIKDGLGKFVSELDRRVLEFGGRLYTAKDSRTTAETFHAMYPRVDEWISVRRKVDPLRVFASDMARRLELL
The meaning of pKd here: minus log10 of the concentration in molar units.

CO[C@H]1/C=C/O[C@@]2(C)Oc3c(C)c(O)c4c(O)c(c(/C=N/N5CCN(C)CC5)c(O)c4c3C2=O)NC(=O)/C(C)=C\C=C\[C@H](C)[C@H](O)[C@@H](C)[C@@H](O)[C@@H](C)[C@H](OC(C)=O)[C@@H]1C [RIFAMPIN] :: 1.03

If you can, please state the reported pKd value of `CCc1cc(=O)[nH]c(-n2nc(C)cc2Nc2cccc(C(F)(F)F)c2)n1` .
4.60
